test system: Cholecystokinin receptor type A (Cavia porcellus); experiment: Evaluated in vitro for maximal stimulatory activity for PI hydrolysis relative to CCK-8 in guinea pig tissue
Where a SMILES comes first, the peptide text is derived from it. [ ]: non-standard residue; d: D form. The star is where a group is joined. Hydrocinnamoyl(4-OSO3H) = O=C(CCc1ccc(OS(=O)(=O)O)cc1)*; X4 = O=C(c1ccc2cc(OS(=O)(=O)O)ccc2c1)*; Nle = CCCC[C@H](N)C(=O)O; Ava = NCCCCC(=O)O
assay readout: Max response (%)

// worked examples, Max response included
{"columns": ["molecule", "Max response / %"],
 "data": [
  ["CC(C)C[C@H](NC(=O)[C@H](Cc1c[nH]c2ccccc12)NC(=O)CCCCNC(=O)CCc1ccc(OS(=O)(=O)O)cc1)C(=O)N[C@@H](CC(=O)O)C(=O)N[C@@H](Cc1ccccc1)C(N)=O ({Hydrocinnamoyl(4-OSO3H)-Ava}-WLDF-NH2)", 64],
  ["CCCC[C@H](NC(=O)c1ccc2cc(OS(=O)(=O)O)ccc2c1)C(=O)NCC(=O)N[C@@H](Cc1c[nH]c2ccccc12)C(=O)N[C@@H](CCCC)C(=O)N[C@@H](CC(=O)O)C(=O)N[C@@H](Cc1ccccc1)C(N)=O (X4-[Nle]GW[Nle]DF-NH2)", 16]
]}

(I) CCCC[C@H](NC(=O)[C@H](Cc1c[nH]c2ccccc12)NC(=O)CNC(=O)[C@@H](CCCC)NC(=O)CCc1ccc(OS(=O)(=O)O)cc1)C(=O)N[C@@H](CC(=O)O)C(=O)N[C@@H](Cc1ccccc1)C(N)=O
(II) CCCC[C@H](NC(=O)[C@H](Cc1c[nH]c2ccccc12)NC(=O)CNC(=O)[C@H](CC(C)C)NC(=O)CCc1ccc(OS(=O)(=O)O)cc1)C(=O)N[C@@H](CC(=O)O)C(=O)N[C@@H](Cc1ccccc1)C(N)=O ({Hydrocinnamoyl(4-OSO3H)}-LGW[Nle]DF-NH2)
Between the two listed entries I and II , which has its Max response at the higher number? Your choice should be expressed through its label. II
(II: 120%, I: 52%)
